Target desc: mineralcorticoid receptor (Homo sapiens)
Sequence (P08235 whole entry): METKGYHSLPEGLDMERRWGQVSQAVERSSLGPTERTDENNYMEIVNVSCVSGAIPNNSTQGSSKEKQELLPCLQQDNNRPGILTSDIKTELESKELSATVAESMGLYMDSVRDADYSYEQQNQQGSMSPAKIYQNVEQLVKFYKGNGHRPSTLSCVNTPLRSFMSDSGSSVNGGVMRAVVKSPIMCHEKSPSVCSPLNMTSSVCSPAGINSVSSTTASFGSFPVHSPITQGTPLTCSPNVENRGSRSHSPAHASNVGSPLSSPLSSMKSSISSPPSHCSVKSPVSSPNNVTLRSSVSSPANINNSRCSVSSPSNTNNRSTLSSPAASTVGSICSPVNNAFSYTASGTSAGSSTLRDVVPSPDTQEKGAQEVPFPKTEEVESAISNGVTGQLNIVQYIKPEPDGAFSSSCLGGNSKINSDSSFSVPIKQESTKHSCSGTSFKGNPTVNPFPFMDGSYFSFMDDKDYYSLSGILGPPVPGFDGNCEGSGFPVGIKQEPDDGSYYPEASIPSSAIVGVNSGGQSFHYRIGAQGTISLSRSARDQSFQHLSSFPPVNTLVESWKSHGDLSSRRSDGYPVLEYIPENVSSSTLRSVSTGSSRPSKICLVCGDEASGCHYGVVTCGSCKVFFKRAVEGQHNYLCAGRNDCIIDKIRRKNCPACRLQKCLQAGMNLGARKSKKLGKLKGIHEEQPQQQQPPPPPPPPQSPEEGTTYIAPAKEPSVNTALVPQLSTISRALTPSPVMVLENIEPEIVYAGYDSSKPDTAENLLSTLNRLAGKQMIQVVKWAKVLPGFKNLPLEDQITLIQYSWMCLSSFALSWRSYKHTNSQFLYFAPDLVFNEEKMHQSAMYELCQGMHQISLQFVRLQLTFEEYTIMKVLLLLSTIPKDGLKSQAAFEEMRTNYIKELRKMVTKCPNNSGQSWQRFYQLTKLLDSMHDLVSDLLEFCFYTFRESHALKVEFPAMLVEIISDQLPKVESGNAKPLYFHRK
Assay procedure: MR antagonism, luciferase reporter cell line assay
Assay type: cell-based
Particulars: reporter cell lines, 16 hours incubation, luminescence
Listing: MR Antagonism activity [% of the maximum effect] of selected molecules
Readout: MR Antagonism activity [% of the maximum effect]

Molecule: C[C@@H]1CC2=CC(=O)CC[C@@H]2[C@H]2CC[C@@]3(C)[C@@H](CC[C@]3(C)C#N)[C@@H]21
Target desc: mineralcorticoid receptor (Homo sapiens)
Recorded result: 96.20 % of the maximum effect
//
Molecule: C[C@]12CC[C@H]3[C@@H](C=CC4=CC(=O)CC[C@@H]43)[C@@H]1[C@@H]1C[C@@H]1[C@@H]2C#N
Target desc: mineralcorticoid receptor (Homo sapiens)
Recorded result: 108.51 % of the maximum effect
//
Molecule: C[C@@H]1CC2=CC(=O)CC[C@@H]2[C@H]2CC[C@]3(C)[C@@H](C#N)CC[C@H]3[C@@H]21
Target desc: mineralcorticoid receptor (Homo sapiens)
Recorded result: 108.02 % of the maximum effect
//
Molecule: C[C@]12CC[C@H]3[C@@H](CCC4=CC(=O)CC[C@@H]43)[C@@H]1[C@H]1C[C@H]1[C@@H]2C#N
Target desc: mineralcorticoid receptor (Homo sapiens)
Recorded result: 93.01 % of the maximum effect
//
Molecule: C[C@]1(C#N)[C@H]2C[C@H]2[C@H]2[C@@H]3CCC4=CC(=O)CC[C@@H]4[C@H]3CC[C@@]21C
Target desc: mineralcorticoid receptor (Homo sapiens)
Recorded result: 96.00 % of the maximum effect
